STUDY SYSTEM: Hepatocyte nuclear factor 3-beta (Homo sapiens)
ASSAY OVERVIEW: ATG_FoxA2_CIS: Attagene CIS-FACTORIAL HepG2 Assay for human Forkhead box A2 (FOXA2) (AID 2282942)
CONDITION: HepG2 cis-reporter transcription factor activity, 24 h; actives raise or lower the signal
The source made the active and inactive calls. Rule for the calls: active = hit-call score of the fitted dose curve at least 0.9, where 1 is the maximum; inactive = score below 0.9.
Outcomes: Y for active, N for inactive

compound=Nc1nnc(-c2ccc([N+](=O)[O-])o2)o1 classification=N
compound=C=CCOC(=O)C(=C)C classification=N
compound="CC[N+](CC)(CC(=O)Nc1c(C)cccc1C)Cc1ccccc1 (tested in a mixture with another compound)" classification=N
compound=CC(C)CC(=O)O classification=N
compound=COC(=O)c1ccccc1 classification=N
compound=O=C(c1ccccc1)c1ccccc1O classification=N
compound=CCCC(=O)OC/C=C(\C)CCC=C(C)C classification=N
compound=CN(C)CCCN1c2ccccc2CCc2ccc(Cl)cc21 classification=N
compound=Cc1cc(C)c(S(=O)(=O)O)cc1N=Nc1cc(S(=O)(=O)O)c2ccccc2c1O classification=N
compound=C/C=C(\C)C(=O)OCC/C=C\CC classification=N
compound=COC(=O)/C=C\C(=O)OC classification=N
compound=CCCCCC[C@@H](O)C/C=C\CCCCCCCC(=O)O classification=Y
compound=NC(N)=Nc1nc(CSCCC(N)=NS(N)(=O)=O)cs1 classification=N

---

STUDY SYSTEM: Cellular tumor antigen p53 (Homo sapiens) (UniProt P04637)
Sequence (P04637 whole entry, looked up): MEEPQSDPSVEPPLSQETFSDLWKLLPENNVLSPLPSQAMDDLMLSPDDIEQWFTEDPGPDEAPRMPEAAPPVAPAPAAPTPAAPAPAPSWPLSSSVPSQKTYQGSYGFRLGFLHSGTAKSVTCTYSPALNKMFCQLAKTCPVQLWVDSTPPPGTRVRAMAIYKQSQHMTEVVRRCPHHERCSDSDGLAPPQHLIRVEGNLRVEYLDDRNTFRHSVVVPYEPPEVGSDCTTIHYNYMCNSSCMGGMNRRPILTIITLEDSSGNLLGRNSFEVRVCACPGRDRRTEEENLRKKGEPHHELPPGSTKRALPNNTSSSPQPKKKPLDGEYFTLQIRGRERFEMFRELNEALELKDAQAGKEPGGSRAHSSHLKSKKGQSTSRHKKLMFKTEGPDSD
ASSAY OVERVIEW: TOX21_p53_BLA_p2_ratio: Tox21 HCT-116 p53 Agonism Beta-lactamase Assay, Ratio, Phase 2 (AID 2283592)
Inconclusive results are not listed. Activity calls are given as the source filed them. How the source made its calls: active means hit-call score of the fitted dose curve at least 0.9, where 1 is the maximum; inconclusive means response in the unintended direction; inactive means score below 0.9.
Labels: active, inactive

molecule=Nc1ccccc1O study_system="Cellular tumor antigen p53 (Homo sapiens) (UniProt P04637)" classification=active
molecule=CC(=O)NCc1c(I)c(NC(C)=O)c(I)c(C(=O)O)c1I study_system="Cellular tumor antigen p53 (Homo sapiens) (UniProt P04637)" classification=inactive
molecule="C=CC(=O)OCC1CC2CC1C1CCC(COC(=O)C=C)C21 (centres undefined)" study_system="Cellular tumor antigen p53 (Homo sapiens) (UniProt P04637)" classification=active
molecule=Cc1cc(CC(=O)O)n(C)c1C(=O)c1ccc(Cl)cc1 study_system="Cellular tumor antigen p53 (Homo sapiens) (UniProt P04637)" classification=inactive
molecule=CC1(C)C[C@@H]1C(=O)N/C(=C\CCCCSC[C@H](N)C(=O)O)C(=O)O study_system="Cellular tumor antigen p53 (Homo sapiens) (UniProt P04637)" classification=inactive
molecule=CN1CCCC1 study_system="Cellular tumor antigen p53 (Homo sapiens) (UniProt P04637)" classification=inactive
molecule=CCOc1ccccc1O[C@H](c1ccccc1)[C@H]1CNCCO1 study_system="Cellular tumor antigen p53 (Homo sapiens) (UniProt P04637)" classification=inactive
molecule=O=C(Cn1ccnc1[N+](=O)[O-])NCCO study_system="Cellular tumor antigen p53 (Homo sapiens) (UniProt P04637)" classification=inactive
molecule=O=C(O)P(=O)(O)O study_system="Cellular tumor antigen p53 (Homo sapiens) (UniProt P04637)" classification=inactive
molecule="CCO[Si](C)(CCCOCC1CO1)OCC (centres undefined)" study_system="Cellular tumor antigen p53 (Homo sapiens) (UniProt P04637)" classification=inactive
molecule=O=C1OC2(c3ccc(O)cc3Oc3cc(O)ccc32)c2ccc(N=C=S)cc21 study_system="Cellular tumor antigen p53 (Homo sapiens) (UniProt P04637)" classification=inactive
molecule=NC(N)=NCc1cccc(I)c1 study_system="Cellular tumor antigen p53 (Homo sapiens) (UniProt P04637)" classification=inactive
molecule=CSc1ccc(/C=C2/C(C)=C(CC(=O)O)c3cc(F)ccc32)cc1 study_system="Cellular tumor antigen p53 (Homo sapiens) (UniProt P04637)" classification=inactive
molecule="CC(CCc1ccccc1)NCC(O)c1ccc(O)c(C(N)=O)c1 (centres undefined)" study_system="Cellular tumor antigen p53 (Homo sapiens) (UniProt P04637)" classification=inactive
molecule="CC1(C)S[C@@H]2[C@H](NC(=O)Cc3ccccc3)C(=O)N2[C@H]1C(=O)O (tested in a mixture with another compound)" study_system="Cellular tumor antigen p53 (Homo sapiens) (UniProt P04637)" classification=inactive
molecule=CCOc1nc2cccc(C(=O)O)c2n1Cc1ccc(-c2ccccc2-c2nn[nH]n2)cc1 study_system="Cellular tumor antigen p53 (Homo sapiens) (UniProt P04637)" classification=active
molecule=CCC(C)=NO study_system="Cellular tumor antigen p53 (Homo sapiens) (UniProt P04637)" classification=inactive
molecule=CCOC(=O)C1=C(C)NC(C)=C(C(=O)OCC)C1c1ccccc1/C=C/C(=O)OC(C)(C)C study_system="Cellular tumor antigen p53 (Homo sapiens) (UniProt P04637)" classification=active
molecule="C[N+]12CCC(CC1)C(OC(=O)C(O)(c1ccccc1)c1ccccc1)C2 (centres undefined)" study_system="Cellular tumor antigen p53 (Homo sapiens) (UniProt P04637)" classification=inactive
molecule=CCN[C@H]1CN(CCCOC)S(=O)(=O)c2sc(S(N)(=O)=O)cc21 study_system="Cellular tumor antigen p53 (Homo sapiens) (UniProt P04637)" classification=inactive
molecule=Cc1nc(Nc2ncc(C(=O)Nc3c(C)cccc3Cl)s2)cc(N2CCN(CCO)CC2)n1 study_system="Cellular tumor antigen p53 (Homo sapiens) (UniProt P04637)" classification=active
molecule=S=C1SCN(Cc2ccccc2)CN1Cc1ccccc1 study_system="Cellular tumor antigen p53 (Homo sapiens) (UniProt P04637)" classification=inactive
molecule=Nc1nnc(-c2cccc(Cl)c2Cl)c(N)n1 study_system="Cellular tumor antigen p53 (Homo sapiens) (UniProt P04637)" classification=inactive
molecule=C=CCONC(CCC)=C1C(=O)CC(C)(C)C(C(=O)OC)=C1O study_system="Cellular tumor antigen p53 (Homo sapiens) (UniProt P04637)" classification=inactive

---

ASSAY OVERVIEW: CCTE_Shafer_MEA_acute_cross_correlation_HWHM: CCTE's Neural Acute Assay for Cross Correlation at Half Width at Half Maximum, Shafer Lab (AID 2284026);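 note: percent change per well from pre-dose baseline in spike cross-correlogram half width; hits are a decrease in cross-correlogram half width relative to DMSO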
Calls of active or inactive are those of the source. How the source made its calls: active means hit-call score of the fitted dose curve at least 0.9, where 1 is the maximum; inactive means score below 0.9.
Possible outcomes: active, inactive

molecule=COc1ccccc1Oc1c(NS(=O)(=O)c2ccc(C(C)(C)C)cc2)nc(-c2ncccn2)nc1OCCO classification=inactive
molecule=COc1ccc(C(=O)c2ccccc2O)c(O)c1 classification=inactive
molecule=C1CN(CCOCCN2CCOCC2)CCO1 classification=active
molecule=CN(C)C(=O)C(CCN1CCC(O)(c2ccc(Cl)cc2)CC1)(c1ccccc1)c1ccccc1 classification=active
molecule=O=[N+]([O-])c1cc(S(=O)(=O)Nc2ccccc2)ccc1Nc1ccccc1 classification=active
molecule=Cc1c(C(N)=O)cc([N+](=O)[O-])cc1[N+](=O)[O-] classification=inactive
molecule=CC1(C)S[C@@H]2[C@H](NC(=O)[C@H](N)c3ccccc3)C(=O)N2[C@H]1C(=O)O classification=inactive
molecule=COc1cc(CNC(=O)CCCC/C=C/C(C)C)ccc1O classification=active
molecule="CC(C)C1OCCN1CCOC(=O)NCCCCCCNC(=O)OCCN1CCOC1C(C)C (stereo not given)" classification=inactive
molecule=NC(N)=Nc1nc(CSCCC(N)=NS(N)(=O)=O)cs1 classification=inactive

---

STUDY SYSTEM: Cellular tumor antigen p53 (Homo sapiens) (UniProt P04637)
ASSAY OVERVIEW: TOX21_p53_BLA_p5_ratio: Tox21 HCT-116 p53 Agonism Beta-lactamase Assay, Ratio, Phase 5 (AID 2283599)
Inconclusive results are not listed. Calls of active or inactive are those of the source. The calls were made as follows: active = hit-call score of the fitted dose curve at least 0.9, where 1 is the maximum; inconclusive = response in the unintended direction; inactive = score below 0.9.
Outcomes: active, inactive

molecule=Cc1cc(NS(=O)(=O)c2ccc(N)cc2)nc(C)n1 classification=inactive
molecule="CN1[C@@H]2CC[C@H]1CC(OC(=O)C(O)c1ccccc1)C2 (stereo not given in full)" classification=inactive
molecule=CCOc1cc([N+](=O)[O-])c(OCC)cc1N1CCOCC1 classification=inactive
molecule=O=C(CCCCCCCCCCCCC1CCCC1)Nc1ccc(S(=O)(=O)c2ccc(NC(=O)CCCCCCCCCCCCC3CCCC3)cc2)cc1 classification=inactive
molecule=NC(=O)NS(=O)(=O)c1ccc(N)cc1 classification=inactive
molecule=COCCOCCOCCOCCO classification=inactive
molecule="CCC(O)C(C)(C)C (stereo not given)" classification=inactive
molecule=C[C@H](CCC(=O)O)[C@H]1CC[C@H]2[C@@H]3[C@H](O)C[C@@H]4C[C@H](O)CC[C@]4(C)[C@H]3C[C@H](O)[C@]12C classification=inactive
molecule=CC1(C)[C@@H](O[C@H]2O[C@H](C(=O)O)[C@@H](O)[C@H](O)[C@H]2O[C@@H]2O[C@H](C(=O)O)[C@@H](O)[C@H](O)[C@H]2O)CC[C@]2(C)[C@H]3C(=O)C=C4[C@@H]5C[C@@](C)(C(=O)O)CC[C@]5(C)CC[C@@]4(C)[C@]3(C)CC[C@@H]12 classification=inactive
molecule=CCCCCCCCCCCCCCCC(=O)OC[C@H](COP(=O)([O-])OCC[N+](C)(C)C)OC(=O)CCCCCCCCCCCCCCC classification=inactive
molecule=COc1ccc(CN2CCN(C(c3ccc(F)cc3)c3ccc(F)cc3)CC2)c(OC)c1OC classification=inactive
molecule=CCCCCCCCCCOc1cc2c(=O)c(C(=O)OCC)c[nH]c2cc1OCC classification=inactive
molecule="CC(C)CCCC(C)N (stereo not given)" classification=inactive
molecule=CC(C)N1CCN(c2ccc(OC[C@H]3CO[C@](Cn4cncn4)(c4ccc(Cl)cc4Cl)O3)cc2)CC1 classification=inactive
molecule=Cc1cc(O)cc2c1O[C@](C)(CCC[C@H](C)CCC[C@H](C)CCCC(C)C)CC2 classification=inactive
molecule=CCCOCCOCCO classification=inactive
molecule=CCCCCCCCCCCCOCCOCCOCCOCCOCCOCCOCCOCCOCCO classification=active
molecule="C=C1CC2C3CCC4=CC(=O)C=C[C@]4(C)[C@@]3(F)[C@@H](O)C[C@]2(C)[C@@]1(O)C(=O)COC(C)=O (stereo not given in full)" classification=inactive
molecule=Oc1cccc2cc3cccc(O)c3c(O)c12 classification=inactive
molecule=Cc1ccc2c(c1[N+](=O)[O-])C(=O)c1ccccc1C2=O classification=active
